Measured SGCB cell-surface expression functional score (log10) of individual entries
B1: library; numbered along this chain (parent)
chain: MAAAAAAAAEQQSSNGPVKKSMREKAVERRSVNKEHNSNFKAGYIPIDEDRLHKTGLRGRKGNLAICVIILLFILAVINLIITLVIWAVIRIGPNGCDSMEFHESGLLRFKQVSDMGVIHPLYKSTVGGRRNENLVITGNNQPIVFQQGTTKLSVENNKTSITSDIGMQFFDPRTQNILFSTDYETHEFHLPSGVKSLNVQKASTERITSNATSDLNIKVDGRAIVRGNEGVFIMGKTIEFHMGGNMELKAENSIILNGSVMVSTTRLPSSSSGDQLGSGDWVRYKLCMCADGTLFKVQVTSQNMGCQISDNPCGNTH

# Variants of: B1
# Measurement Notes: SGCB cell-surface expression functional score (HA stain, bin4 vs bin1, normalised to synonymous) (log10 ratio); higher = more cell-surface SGCB (functional)
Outcome Measure: SGCB cell-surface expression functional score (log10)

>>> result("Q169I")
0.44
>>> result("S193I")
0.78
>>> result("S13T")
-0.13
>>> result("D292H")
-0.19
>>> result("F146L")
0.18
>>> result("R130P")
0.33
>>> result("F189R")
-2.1
>>> result("R227T")
0.88
>>> result("F296R")
-0.46
>>> result("V300H")
-0.8
>>> result("V27Y")
0.26
>>> result("R29E")
0.41
>>> result("E240L")
0.37
>>> result("L72G")
0.44
>>> result("S310H")
-0.5
>>> result("G128N")
0.37
>>> result("S197H")
-0.72
>>> result("L191Y")
-1.61
>>> result("H120E")
-0.09
>>> result("L277G")
-0.19
>>> result("I45F")
-0.02
>>> result("S279A")
0.39
>>> result("P94H")
0.01
>>> result("V85L")
0.24
>>> result("S260Y")
-0.87
>>> result("N177E")
0.19
>>> result("V32G")
0.1
>>> result("T209W")
-0.85
>>> result("N134H")
0.34
>>> result("K19I")
0.14
>>> result("S272R")
0.18
>>> result("G139E")
-0.91
>>> result("G236Q")
0.48
>>> result("L71Q")
0.12
>>> result("K20H")
-0.13
>>> result("F40N")
-0.16
>>> result("N158T")
0.18
>>> result("N79R")
-0.8
>>> result("V232Y")
-1.09
>>> result("A251H")
0.44
>>> result("G93T")
0.23
>>> result("Q142N")
-0.43
>>> result("L135K")
-1.3
>>> result("D183C")
-1.17
>>> result("D172P")
-1.12
>>> result("G128P")
-1.25
